Values compiled from patent EP4786466A1.

activity at 1 µM values, listed per item
Target: Recombinant GST-TAG-MASTL (Homo sapiens, UniProt Q96GX5)
Construct: GST; purchased Thermo Fisher Scientific
Sequence (Q96GX5 1-879): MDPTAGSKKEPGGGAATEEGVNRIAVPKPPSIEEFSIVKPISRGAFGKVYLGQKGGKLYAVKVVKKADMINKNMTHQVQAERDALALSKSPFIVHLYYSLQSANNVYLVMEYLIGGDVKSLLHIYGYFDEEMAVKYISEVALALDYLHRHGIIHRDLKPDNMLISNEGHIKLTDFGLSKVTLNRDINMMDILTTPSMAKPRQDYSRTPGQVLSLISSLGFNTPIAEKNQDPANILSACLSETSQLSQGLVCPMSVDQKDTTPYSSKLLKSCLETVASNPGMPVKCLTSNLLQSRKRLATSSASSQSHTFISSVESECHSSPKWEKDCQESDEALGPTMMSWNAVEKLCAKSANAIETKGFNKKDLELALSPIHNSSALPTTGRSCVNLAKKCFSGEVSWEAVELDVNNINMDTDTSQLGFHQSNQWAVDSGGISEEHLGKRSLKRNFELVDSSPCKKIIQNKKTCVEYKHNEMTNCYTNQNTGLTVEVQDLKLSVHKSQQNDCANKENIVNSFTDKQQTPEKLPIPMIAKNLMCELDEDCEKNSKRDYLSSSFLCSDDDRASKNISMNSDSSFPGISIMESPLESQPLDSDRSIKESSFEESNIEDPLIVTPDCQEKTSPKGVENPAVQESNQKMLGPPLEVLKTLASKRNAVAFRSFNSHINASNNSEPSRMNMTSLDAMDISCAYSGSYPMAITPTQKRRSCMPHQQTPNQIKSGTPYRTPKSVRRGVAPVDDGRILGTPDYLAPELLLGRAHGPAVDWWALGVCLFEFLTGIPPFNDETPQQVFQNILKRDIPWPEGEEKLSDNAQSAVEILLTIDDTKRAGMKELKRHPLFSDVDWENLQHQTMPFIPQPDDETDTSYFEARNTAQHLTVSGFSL
Experiment: HTRF-based kinase assay (HTRF KinEASE assay kit)
Assay type: biochemical
Conditions: compound 1 µM; read-out: MASTL activity (%) HTRF (1 µM)
The response must be a number in % with no trailing unit.

Worked examples follow.
compound	system	activity at 1 µM [%]
Cc1cc(Nc2nc(Nc3ccc(CC#N)cc3)nc3ccccc23)n[nH]1	Recombinant GST-TAG-MASTL (Homo sapiens, UniProt Q96GX5)	53.1
CC(C)(C)OC(=O)N1CC2(CCN(c3nc(Nc4cc(C5CC5)[nH]n4)c4ccccc4n3)CC2)C1	Recombinant GST-TAG-MASTL (Homo sapiens, UniProt Q96GX5)	32.9
Clc1nc(Nc2cc(C3CC3)[nH]n2)c2ccccc2n1	Recombinant GST-TAG-MASTL (Homo sapiens, UniProt Q96GX5)	73.4
CC(C)CN1CC2CC1CN2c1nc(Nc2cn[nH]c2)c2ccccc2n1 (centres unmarked) [compound 28e]	Recombinant GST-TAG-MASTL (Homo sapiens, UniProt Q96GX5)	103
COC(=O)c1ccc(Nc2nc(Nc3cc(C4CC4)[nH]n3)c3ccccc3n2)cc1	Recombinant GST-TAG-MASTL (Homo sapiens, UniProt Q96GX5)	53.8
N#CCc1ccc(Nc2nc(Nc3nnc(C4CC4)s3)c3ccccc3n2)cc1	Recombinant GST-TAG-MASTL (Homo sapiens, UniProt Q96GX5)	114
c1ccc2c(Nc3cc(C4CC4)[nH]n3)nc(N3CCC4(CC3)OCCO4)nc2c1	Recombinant GST-TAG-MASTL (Homo sapiens, UniProt Q96GX5)	15.2
c1ccc2c(Nc3cc(C4CC4)n[nH]3)nc(Nc3ccc4nc[nH]c4c3)nc2c1	Recombinant GST-TAG-MASTL (Homo sapiens, UniProt Q96GX5)	31.8
CC(C)(C)OC(=O)N1CCN(c2nc(Nc3cc(C4CC4)[nH]n3)c3ccccc3n2)CC1	Recombinant GST-TAG-MASTL (Homo sapiens, UniProt Q96GX5)	24.1
CCCc1ccc(S(=O)(=O)N2CC3CC2CN3c2nc(Nc3cc(C4CC4)[nH]n3)c3ccccc3n2)cc1 (centres unmarked) [compound 15x]	Recombinant GST-TAG-MASTL (Homo sapiens, UniProt Q96GX5)	68.4

Return activity at 1 µM measured with Recombinant GST-TAG-MASTL (Homo sapiens, UniProt Q96GX5) given this compound: c1ccc2c(Nc3cc(C4CC4)[nH]n3)nc(Nc3cccc4[nH]ccc34)nc2c1 58.5

Same question for Brc1ccc(Nc2nc(Nc3cc(C4CC4)[nH]n3)c3ccccc3n2)cc1 please. 43.2

How about this compound: CC(C)(C)OC(=O)NCCCCCNC(=O)c1ccc(Nc2nc(Nc3cc(C4CC4)[nH]n3)c3ccccc3n2)cc1 85.3

Continue with c1ccc(CN2CC3CC2CN3c2nc(Nc3cc(C4CC4)[nH]n3)c3ccccc3n2)cc1 (centres unmarked) [compound 15g] 27.9

Next compound: Nc1ccc(Nc2nc(Nc3cc(C4CC4)[nH]n3)c3ccccc3n2)cc1 41.4

How about this compound: N#CCc1ccc(Nc2nc(Nc3ccccc3OCc3ccccc3)c3ccccc3n2)cc1 120

Subsequent entry: N#CCc1ccc(Nc2nc(Nc3n[nH]c4ccccc34)c3ccccc3n2)cc1 102

====

Assay: in vitro
Details: human, mcf10a cells
measurementLabel: viability at 1 µM (%)
I only need the number, in %, no unit after it.

Answered examples (5):
molecule	measurementLabel	measuredResult
FC(F)(F)c1ccc(C2=CCN(c3nc(Nc4cc(C5CC5)[nH]n4)c4ccccc4n3)CC2)cc1	viability at 1 µM	102
O=C(O)c1ccc(Nc2nc(Nc3cc(C4CC4)[nH]n3)c3ccccc3n2)cc1	viability at 1 µM	84.2
O=C1Cc2cc(Nc3nc(Nc4cc(C5CC5)[nH]n4)c4ccccc4n3)ccc2N1	viability at 1 µM	12.1
NCCCCNC(=O)c1ccc(Nc2nc(Nc3cc(C4CC4)[nH]n3)c3ccccc3n2)cc1	viability at 1 µM	102
CC(C)C(=O)N1CC2CC1CN2c1nc(Nc2cc(C3CC3)[nH]n2)c2ccccc2n1 (stereo not drawn) [compound 15d]	viability at 1 µM	40.3

Could you share which viability at 1 µM value was measured for C1=C(Cc2ccccc2)CCN(c2nc(Nc3cc(C4CC4)[nH]n3)c3ccccc3n2)C1 ? 59.8

What about Fc1cc(Br)ccc1Nc1nc(Nc2cc(C3CC3)[nH]n2)c2ccccc2n1 ? 83.3

Now the molecule c1ccc2sc(-c3ccc(Nc4nc(Nc5cc(C6CC6)[nH]n5)c5ccccc5n4)cc3)nc2c1 85.8

Also check Cc1cc(Nc2nc(N3CC4CC3CN4C(=O)Nc3ccccc3)nc3ccccc23)n[nH]1 (stereo not drawn) [compound 27b] 36.1

Param item: Cc1ccc(C2=CCN(c3nc(Nc4cc(C5CC5)[nH]n4)c4ccccc4n3)CC2)c(C)c1 33.1

Could you do the same for O=S(=O)(c1ccc(F)cc1F)N1CC2CCC1CN2c1nc(Nc2cc(C3CC3)[nH]n2)c2ccccc2n1 (stereo not drawn) [compound 24c] , please? 10.8

Field entry: CC(C)(C)OC(=O)NCCCCNC(=O)c1ccc(Nc2nc(Nc3cc(C4CC4)[nH]n3)c3ccccc3n2)cc1 80.2

Now the same for Cc1ccc(-c2nc3ccccc3s2)cc1Nc1nc(Nc2cc(C3CC3)[nH]n2)c2ccccc2n1 118

Quick one: N#Cc1ccccc1S(=O)(=O)N1CC2CC1CN2c1nc(Nc2cc(C3CC3)[nH]n2)c2ccccc2n1 (stereo not drawn) [compound 15v] 81.8

Check CC(C)C(=O)N1CC=C(c2nc(Nc3cc(C4CC4)[nH]n3)c3ccccc3n2)CC1 too. 12.3

====

Target: pENSA
Assay: pENSA level by immunofluorescence (described method: in vitro kinase analysis with GST-tag-MASTL and His-tag-ENSA)
Assay type: cell-based
Conditions: unit µM; read-out: IC50 pENSA
Procedure: Two recombinant GST-tag-MASTL (Thermo Fisher Scientific) and His-tag-ENSA (Sino Biological Inc., Beijing, China) were used for in vitro kinase analysis. In vitro kinase analysis was performed as described in the literature [Front Oncol 2020, 10, 571601, 39-202021-10-20doi:10.3389/fonc.2020.571601.]. Phosphorylated ENSA (pENSA), which is activated by phosphorylation by MASTL, can be utilized as a biomarker as it is expected that its activity will be inhibited along with the inhibition of MASTL. […]
Catalogue of compounds with associated IC50
Provide only the numeric value, understood in µM.

Please review the entries below; each comes with its answer.
compound	unitSpec	IC50
O=S(=O)(c1cccs1)N1CC2CCC1CN2c1nc(Nc2cc(C3CC3)[nH]n2)c2ccccc2n1 (stereo not shown) [compound 24d]	µM	1.9
O=S(=O)(Cc1ccccc1)N1CC2CC1CN2c1nc(Nc2cc(C3CC3)[nH]n2)c2ccccc2n1 (stereo not shown) [compound 15l]	µM	3.7
Cc1cccc(S(=O)(=O)N2CC3CC2CN3c2nc(Nc3cc(C4CC4)[nH]n3)c3ccccc3n2)c1 (stereo not shown) [compound 15t]	µM	6.2
Brc1ccc(Nc2nc(Nc3cc(C4CC4)[nH]n3)c3ccccc3n2)cc1	µM	1.1
CN1CCN(c2nc(Nc3cc(C4CC4)[nH]n3)c3ccccc3n2)CC1 [compound 12a]	µM	1.1
c1ccc2c(Nc3cc(C4CC4)[nH]n3)nc(Nc3cccc4[nH]ccc34)nc2c1	µM	1.8
c1ccc2c(Nc3cc(C4CC4)[nH]n3)nc(Nc3ccc4cc[nH]c4c3)nc2c1	µM	2.5
O=S(=O)(c1ccc2ccccc2c1)N1CC2CC1CN2c1nc(Nc2cc(C3CC3)[nH]n2)c2ccccc2n1 (stereo not shown) [compound 15y]	µM	6.9
O=S(=O)(c1c(F)cccc1F)N1CC2CC1CN2c1nc(Nc2cc(C3CC3)[nH]n2)c2ccccc2n1 (stereo not shown) [compound 15p]	µM	4.4

Field: next compound
Return reported IC50; argument: c1ccc2c(Nc3cc(C4CC4)[nH]n3)nc(Nc3ccc4[nH]ccc4c3)nc2c1 2.1
